Reference source: patent US10857105B2

In this section, each of the compounds is paired with its reported Total Flux, Liver.
system: modified luciferase; experiment: Luciferase expression in liver, lung, spleen and femur 6 hours after intravenous administration to mice; assay type: in vivo; conditions: liver, 6 hours after intravenous 0.5 mpk, mice
Lab note: write the figure by itself, no unit.

compound: CCCCCCCCCOC(=O)CCCCCCCN(CCO)CCCCCCCC(=O)OC1CCC(CCCCC)CC1 (centres unmarked)
result: 3.15E+06
--
compound: CCCCCCCCCOC(=O)CCCCCCCN(CCO)CCCCCCCC(=O)OC(CC)CC
result: 2.87E+05
--
compound: CCCCCCCCC(CCCCCCCC)OC(=O)CCCCCCCN(CCO)CCCC(=O)OC1CCC(CCCCC)CC1 (centres unmarked)
result: 3.60E+09

Then this compound:
Note to self: Total Flux, Liver recorded for `CCCCCCCCC(CCCCCCCC)OC(=O)CCCCCCCN(CCO)CCCC(=O)OCCCCC` was 5.86E+08

###

Listing of recorded Size by entry.
test: Particle size and polydispersity index of nanoparticle compositions (Zetasizer Nano ZS); format: physicochemical; conditions: Table 1A; lipid:DSPC:cholesterol:PEG-DMG 50:10:38.5:1.5 mol %
Answer format reminder: number followed by unit.

Examples with their reported Size follow.
molecule: CCCCCCCCCOC(=O)CCCCCCCN(CCCCCCCC(=O)OC(CCCCCCCC)CCCCCCCC)CCCOC
value.kind: Size
result: 119.0 nm
--
molecule: CCCCCCCCC(CCCCCCCC)OC(=O)CCCCCCCN(CCO)C(C)CCCCCCCCOC(=O)CCCCCCC (stereo not shown)
value.kind: Size
result: 67.6 nm
--
molecule: CCCCCCCCC(CCCCCC)C(=O)OCCCCCCCCCN(CCO)CCCCCCCCCOC(=O)C(CCCCCC)CCCCCCCC (stereo not shown)
value.kind: Size
result: 66.0 nm
--
molecule: CCCCCCCCCOC(=O)CCCCCCCN(CCCCCCCC(=O)OC(CCCCCCCC)CCCCCCCC)CCCOC(=O)NC
value.kind: Size
result: 65.7 nm
--
molecule: CCCCCCCCCOC(=O)CCCCCCCN(CCCCCCCC(=O)OC(CCCCCCCC)CCCCCCCC)CCCNc1c(NC)c(=O)c1=O
value.kind: Size
result: 84.4 nm

// Size value for `CCCCCCCCCOC(=O)CCCCCCCN(CCO)CCCCCCCCCOP(=O)(OCCCCCCCCC)OCCCCCCCCC` : 110.4 nm

Just so you know, measured Size for `CCCCCCCCCOC(=O)CCCCCCCN(CCO)CCCCCCCC(=O)OC(CCCCCC)CCCCCC` came out at 112.1 nm

###

Listing: Lipid Purity, t = 0 of selected compounds
assay: Chemical stability of lipids in ethanol at room temperature and 37° C. (lipid purity); type: physicochemical; details: t = 0
Supply the numeric figure in %, leaving out any unit text.

compound: CCCCCCCCC(CCCCCCCC)OC(=O)CCCCCCCN(CCO)CCCCCCCC(=O)OC(CCCCCCCC)CCCCCCCC [compound 29]
value.units: %
Lipid Purity, t = 0: 97.017
//
compound: CCCCCCCCCOC(=O)CCCCCCCN(CCO)CCCCCCCC(=O)OC(CCCCCCCC)CCCCCCCC [Compound 18]
value.units: %
Lipid Purity, t = 0: 94.37
//
compound: CCCCC/C=C\C/C=C\CCCCCCCCN(CCO)CCCCCCCC(=O)OCCCCCCCCC [Compound 136]
value.units: %
Lipid Purity, t = 0: 91.81

// sample CCCCCCCCCOC(=O)CCCN(CCO)CCCCCCCC(=O)OC(CCCCCCCC)CCCCCCCC [Compound 26] , its Lipid Purity, t = 0 was 98.64
